target or test system: T1, CD32B (FcγRII-B) (UniProt P31994 43-217, limits assumed)
T1 sequence (looked up): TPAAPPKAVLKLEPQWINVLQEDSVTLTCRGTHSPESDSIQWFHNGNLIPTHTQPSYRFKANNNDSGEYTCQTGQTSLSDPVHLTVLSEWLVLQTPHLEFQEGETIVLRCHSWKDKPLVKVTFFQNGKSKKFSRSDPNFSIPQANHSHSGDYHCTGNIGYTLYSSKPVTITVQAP
assay protocol: method not stated at Table 3
We begin with a simple list: items and their reported binding relative to wild-type Fc.

- binder: "Fc variant F243L R255L D270E P396L (other, UniProt P01857-1 104-330, looked up, domain: Fc) DKTHTCPPCPAPELLGGPSVFLLPPKPKDTLMISLTPEVTCVVVDVSHEEPEVKFNWYVDGVEVHNAKTKPREEQYNSTYRVVSVLTVLHQDWLNGKEYKCKVSNKALPAPIEKTISKAKGQPREPQVYTLPPSRDELTKNQVSLTCLVKGFYPSDIAVEWESNGQPENNYKTTPLVLDSDGSFFLYSKLTVDKSRWQQGNVFSCSVMHEALHNHYTQKSLSLSPGK"
  units text: "fold"
  binding relative to wild-type Fc: 0.38
- binder: "Fc variant F243I R292P Y300L V305I P396L (other, UniProt P01857-1 104-330, looked up, domain: Fc; 'F243I' as printed) DKTHTCPPCPAPELLGGPSVFLIPPKPKDTLMISRTPEVTCVVVDVSHEDPEVKFNWYVDGVEVHNAKTKPPEEQYNSTLRVVSILTVLHQDWLNGKEYKCKVSNKALPAPIEKTISKAKGQPREPQVYTLPPSRDELTKNQVSLTCLVKGFYPSDIAVEWESNGQPENNYKTTPLVLDSDGSFFLYSKLTVDKSRWQQGNVFSCSVMHEALHNHYTQKSLSLSPGK"
  units text: "fold"
  binding relative to wild-type Fc: 1.05
- binder: "Fc variant F243L D270E G316D R416G (other, UniProt P01857-1 104-330, looked up, domain: Fc) DKTHTCPPCPAPELLGGPSVFLLPPKPKDTLMISRTPEVTCVVVDVSHEEPEVKFNWYVDGVEVHNAKTKPREEQYNSTYRVVSVLTVLHQDWLNDKEYKCKVSNKALPAPIEKTISKAKGQPREPQVYTLPPSRDELTKNQVSLTCLVKGFYPSDIAVEWESNGQPENNYKTTPPVLDSDGSFFLYSKLTVDKSGWQQGNVFSCSVMHEALHNHYTQKSLSLSPGK"
  units text: "fold"
  binding relative to wild-type Fc: 0.2
